B1: OR4K15 (parent)
chain: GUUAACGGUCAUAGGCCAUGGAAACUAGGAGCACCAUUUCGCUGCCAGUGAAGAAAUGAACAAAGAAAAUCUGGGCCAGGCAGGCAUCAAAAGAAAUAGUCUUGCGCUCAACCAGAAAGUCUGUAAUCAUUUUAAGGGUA

Variants of: B1
assay_notes: self-cleavage, relative activity (ratio to wild type); higher = more cleavage; in vitro, sequencing; the parent is a self-cleaving ribozyme
readout: self-cleavage
Provide a numeric answer; units are not to be included.

Examples with their reported self-cleavage follow.
• GUUAACGGUCAUAGGCCAUGGAAACUAGGAGCACCAUUUCGCUGCCAGUGAAGAAAUGAACAAAGAAAAUCUGGGCCAGGCAGGCCUCAAAAGAAAUAGUCUUGCGCACAACCAGAAAGUCUGUAAUCAUUUUAAGGGUA [A86C U108A] = 0.16
• GUUAACGGUCAUAGGCCAUGGAAACCAGGAGCACCAUUUCGCUGCCAGUGAAGAAAUGAACAAAGAAAAUCUGGGCCAGGCAGGCAUCAAAAGAAAUAGUCUUGCGCUCCACCAGAAAGUCUGUAAUCAUUUUAAGGGUA [U26C A110C] = 0.25
• GUUAACGGUCAUAGGCCAUGGAAACUAGGAGCGCCAUUUCGCUGCCAGUGAAGAAAUGAACAAAGAAAAUCUGGGCCAGGCAGGCAUCAAAAGAAAUAGUCUUGCGCUCAACCAGAAAGGCUGUAAUCAUUUUAAGGGUA [A33G U120G] = 0.65
• GUUAACGGUCAUAGGCCGUGGAAACUAGGAGCACCAUUUCGCUGCCAGUGAAGAAAUGAACAAAGAAAAUCUGGGCCAGGCAGGCAUCAAAAGAAAUAGUCUUGCGCUCAACCAGAAAGUCUGUAAUCAUUGUAAGGGUA [A18G U132G] = 1.71

Fill in the blank: the reported self-cleavage of GUGAACGGUCAUAGGCCAUGGAAACUAGGAGCACCAUUUCGCUGCCAGUGAAGAAAUGAACAAAGAAAAUCUGGGCCAGGCAGGCAUCAAAAGAAAUAGUCUUGCGCUCAACCAGAAAGUCUGUAAUCAUUUUAAGGGUA [U3G] is ____. 1.07

Would you kindly repeat that for GUUAACGGUCAUAGGCCAUGGAAACUAGGAGCACCAUUACGCUGCCAGUGAAGAAAUGAACAAAGAAAAUCUGGGCCAGGCAGGCAUCAAAAGAAAUAGACUUGCGCUCAACCAGAAAGUCUGUAAUCAUUUUAAGGGUA [U39A U100A] ? 0.55

Would you kindly repeat that for GUUAACGGUCAUAGGCCAUGGAAGCUAGGAGCACCAUUUCGCUGCCAGUGAAGAAAUGAACAAAGAAAAUCUGGGCCAGGCAGGCAUCAAAAGAAAUAGUCUUGCGCUCAACCAGAAAGUCUGUAAUCAUUUUAAGGGAA [A24G U139A] ? 1.53

Would you kindly repeat that for GUUAACGGUCAUAGGCCAUGGAAACUAGGAGCACCAUUUCGCUGCCAGUGAAGAAAUGAACAAAGAAAAUCUGGGCCAGGCAGGCAUCAAAAGAAAUAGUCUUGCGCUCAACCAGAAAGUCUGUAAUCAUCUUAUGGGUA [U131C A135U] ? 0.87

Would you kindly repeat that for GUUAACGGUCAUAGGCCAUGGAAACUAGGAGCACCAUUUCGCUGCUAGUGUAGAAAUGAACAAAGAAAAUCUGGGCCAGGCAGGCAUCAAAAGAAAUAGUCUUGCGCUCAACCAGAAAGUCUGUAAUCAUUUUAAGGGUA [C46U A51U] ? 0.64

Would you kindly repeat that for GUUAACGGUCAUAGGCCAUGGGAACUAGGAGCACCAUUUCGCUGCCAGUGGAGAAAUGAACAAAGAAAAUCUGGGCCAGGCAGGCAUCAAAAGAAAUAGUCUUGCGCUCAACCAGAAAGUCUGUAAUCAUUUUAAGGGUA [A22G A51G] ? 1.22

Would you kindly repeat that for GUUAACGGUCAUAGGCCAUGGAAACUAGGAGCACCAUUUCGCUGCCAGUGGAGAAAUGAACAAAGAAAAUCUGGGCCAGGCAGGCAUCAAAAGAAAUAGUCUUGCGCUCAACCAGAAAGUCUGUAAUCAUUUUAAGGGUA [A51G] ? 1.36

Would you kindly repeat that for GUUAACGGUCAUAGGCCAUGGAAACUAGGAGCACCAUUUCGCUGCCAGUGAAGAGAUGAACAAAGAAAAUCUGGGCCAGGCAGGCAUCAAAAGAAAUAGUCUUGCGCUCAACCAGAAAGUCUGCAAUCAUUUUAAGGGUA [A55G U124C] ? 0.5

Would you kindly repeat that for GUUAACGGUCAUAGGCCAUGGAAACUAGGAGCACCAUUCCGCUGCCAGUGAAGAAAUGAACAAAGAAAAUCUGGGCCAGGCAGGCAUCAAAAGAGAUAGUCUUGCGCUCAACCAGAAAGUCUGUAAUCAUUUUAAGGGUA [U39C A95G] ? 1.53

Would you kindly repeat that for GUUAACGGUCAUAGGCCAUGGAAACUAGGAGCACCAUUUCGCUGCCAGUGACGAAAUGAACAAAGAUAAUCUGGGCCAGGCAGGCAUCAAAAGAAAUAGUCUUGCGCUCAACCAGAAAGUCUGUAAUCAUUUUAAGGGUA [A52C A67U] ? 1.67

Would you kindly repeat that for GUAAACGGUCAUAGGCCAUGGAAACUAGGAGCACCAUUUCGCUGCCAGUGAAGAAAUGAACAAAGAAAAUCUGGGCCAGGCAGGCAUCAAAAGAAAUAGUCUUGCGCUCAACCAGAAGGUCUGUAAUCAUUUUAAGGGUA [U3A A118G] ? 0.9
